- SYSTEM NAME: tyrosyl-DNA phosphodiesterase 1 (Tdp1) (Homo sapiens, UniProt Q9NUW8 1-608)
- Sequence (Q9NUW8 whole entry): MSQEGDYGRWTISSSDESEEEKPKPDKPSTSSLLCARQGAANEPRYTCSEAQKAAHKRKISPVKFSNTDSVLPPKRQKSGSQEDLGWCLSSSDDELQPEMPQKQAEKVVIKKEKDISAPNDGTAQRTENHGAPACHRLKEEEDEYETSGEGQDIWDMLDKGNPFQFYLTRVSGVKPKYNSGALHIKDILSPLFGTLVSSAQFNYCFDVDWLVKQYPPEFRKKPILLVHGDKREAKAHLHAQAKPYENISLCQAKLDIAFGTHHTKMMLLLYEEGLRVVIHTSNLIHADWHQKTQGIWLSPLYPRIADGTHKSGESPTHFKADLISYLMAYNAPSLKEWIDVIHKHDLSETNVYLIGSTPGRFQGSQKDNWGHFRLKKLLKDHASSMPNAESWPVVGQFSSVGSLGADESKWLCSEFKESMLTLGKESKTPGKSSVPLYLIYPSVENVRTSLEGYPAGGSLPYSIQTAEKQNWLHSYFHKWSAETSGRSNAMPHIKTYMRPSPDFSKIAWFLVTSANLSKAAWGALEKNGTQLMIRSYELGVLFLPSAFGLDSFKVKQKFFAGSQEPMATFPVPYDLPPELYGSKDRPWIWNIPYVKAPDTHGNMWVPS
- METHOD SUMMARY: fluorescence anisotropy
MEASUREMENT NAME: Kd (nM)
Use nM as the unit, but write only the number.

[in] Recorded Kd of GATCTAAAAGACTT (ssDNA, 5'-6-FAM via phosphodiester; 3'-OH) [F14] , please.
[out] 76.9
